# System: Fibroblast
# experiment summary: Multiplex assay against human fibroblast
# Format: toxicity, cell-based
# run conditions: 24 h, 10 µM, compound concentration 10 uM, replicate 1
So I've got a bunch of compounds here, and I need their Population Fragmented Nuclei (%) values.
One number for each entry, in %.

{"columns": ["compound", "units symbol", "Population Fragmented Nuclei (%)"],
 "data": [
  ["Cc1ccc(S(=O)(=O)NC2c3ccccc3Oc3ccccc32)cc1", "%", 35],
  ["CCOc1ccn(-c2ccc(F)cc2)c(=O)c1C(=O)Nc1ccc(Oc2ccnc(N)c2Cl)c(F)c1 [BMS-777607]", "%", 26],
  ["CCOC(=O)CCNc1cc(N2CCc3ccccc3CC2)nc(-c2ccccn2)n1", "%", 34],
  ["NC(=O)c1ccc2nc(-c3ccc(C4(N)CCC4)cc3)c(-c3ccccc3)n2n1 [BAY-1125976]", "%", 19]
]}

Look up Population Fragmented Nuclei (%) for the entries below, preserving their order.
1. C=CC(=O)Nc1cc(-n2c(=O)ccc3cnc4ccc(-c5ccc(NS(C)(=O)=O)cc5)cc4c32)ccc1C
2. N#Cc1cccc(C(=O)Nc2cc(-c3ccccc3)nn2-c2ccccc2)c1

36
20

###

# System: Fibroblast
# experiment summary: Incucyte cell viability with human fibroblast; further: filed as whole numbers so only -1 and 0 and 1 occur
# Type: toxicity, cell-based
# run conditions: 6 h, 10 µM, compound concentration 10 uM, replicate number 1, timepoint 6 hours
measured parameter: Growth Rate
Give bare numbers.

{"columns": ["compound", "measured parameter", "observed"],
 "data": [
  ["CCOc1ccn(-c2ccc(F)cc2)c(=O)c1C(=O)Nc1ccc(Oc2ccnc(N)c2Cl)c(F)c1", "Growth Rate", 0]
]}

Look up Growth Rate for the entries below, preserving their order.
1. COc1ccc(CCc2nc3cc(-c4c(C)noc4C)ccc3n2C[C@H](C)N2CCOCC2)cc1Cl
2. CCOC(=O)CCNc1cc(N2CCc3ccccc3CC2)nc(-c2ccccn2)n1
3. CCCCCNC(=N)N/N=C/c1c[nH]c2ccc(OC)cc12.O=C(O)/C=C\C(=O)O [TEGASEROD MALEATE]

1
1
0

###

# Tested on: Fibroblast
# experiment summary: Multiplex assay against human fibroblast
# Format: toxicity, cell-based
# run conditions: 24 h, 1 µM, compound concentration 1 uM, replicate 2
So I've got a bunch of compounds here, and I need their Population Tubulin-Different-Phenotype (%) values.
Give bare numbers, in %.

Here is how some compounds turned out for Population Tubulin-Different-Phenotype (%).
{"columns": ["smiles code", "observed"],
 "data": [
  ["C[C@@H](Oc1cc(-n2cnc3ccc(CN4CCN(C)CC4)cc32)sc1C(N)=O)c1ccccc1C(F)(F)F", 28],
  ["Cc1c(Nc2ccc(S(=O)(=O)N3CCN(C)CC3)cc2F)nc2ccc(-c3cnn(C4CC4)c3)cn2c1=O", 8]
]}

Look up Population Tubulin-Different-Phenotype (%) for the entries below, preserving their order.
1. Cc1c(Nc2ccc(S(=O)(=O)N3CCN(C)CC3)cc2F)nc2ccc(Nc3cnn(C4CC4)c3)cn2c1=O
2. Oc1cccc(-c2nc(N3CCOCC3)c3oc4ncccc4c3n2)c1

1: 40; 2: 1

Look up Population Tubulin-Different-Phenotype (%) for the entries below, preserving their order.
1. CCOC(=O)CCNc1cc(N2CCc3ccccc3CC2)nc(-c2ccccn2)n1
2. Cc1c(P(=S)(c2ccccc2)c2ccccc2)n2ccccc2[n+]1C/C=C/c1ccccc1.[Br-]
3. Cc1ccc(NC(=O)Nc2cc(C(F)(F)F)ccc2F)cc1Nc1ccc2c(c1)NC(=O)/C2=C\c1ccc[nH]1
4. C=CC(=O)Nc1cc(-n2c(=O)ccc3cnc4ccc(-c5ccc(NS(C)(=O)=O)cc5)cc4c32)ccc1C

[14, 15, 55, 22]

Look up Population Tubulin-Different-Phenotype (%) for the entries below, preserving their order.
1. CC(C)[C@H](CO)Nc1nc(Nc2cccc(Cl)c2)c2ncn(C(C)C)c2n1
2. N#Cc1cccc(C(=O)Nc2cc(-c3ccccc3)nn2-c2ccccc2)c1

9
7

###

# System: U2OS
# experiment summary: Multiplex assay against U2OS
# Type: toxicity, cell-based
# run conditions: human, 12 h, 10 µM, compound concentration 10 uM, replicate 1
measured parameter: Population Mitotic Cells (%)
One number for each entry, in %.

Here is how some compounds turned out for Population Mitotic Cells (%).
{"columns": ["compound", "subject of test", "measured parameter", "units symbol", "observed"],
 "data": [
  ["CN1C(=O)[C@@H](NC(=O)c2cc3ccccc3[nH]2)N=C(c2ccccc2)c2ccccc21 [DEVAZEPIDE]", "U2OS", "Population Mitotic Cells (%)", "%", 47],
  ["CC(/C=C1\\SC(=S)N(CCCC(=O)Nc2ccc(C(=O)O)c(O)c2)C1=O)=C\\c1ccccc1", "U2OS", "Population Mitotic Cells (%)", "%", 57],
  ["Oc1cccc(-c2nc(N3CCOCC3)c3oc4ncccc4c3n2)c1", "U2OS", "Population Mitotic Cells (%)", "%", 57]
]}

Look up Population Mitotic Cells (%) for the entries below, preserving their order.
1. CCOc1ccn(-c2ccc(F)cc2)c(=O)c1C(=O)Nc1ccc(Oc2ccnc(N)c2Cl)c(F)c1
2. NC(=O)c1ccc2nc(-c3ccc(C4(N)CCC4)cc3)c(-c3ccccc3)n2n1

[33, 33]

###

# Test system: HEK-293T
# experiment summary: Multiplex assay against HEK293T
# Assay type: toxicity, cell-based
# run conditions: human, 24 h, 1 µM, compound concentration 1 uM, replicate 2
So I've got a bunch of compounds here, and I need their Total Cell Count values.
Give bare numbers.

{"columns": ["compound", "Total Cell Count"],
 "data": [
  ["CC(C)[C@H](CO)Nc1nc(Nc2cccc(Cl)c2)c2ncn(C(C)C)c2n1", 244],
  ["Cl.Cn1c2c(c3ccc(Cl)c(Cl)c31)C(C#N)C1(CCNCC1)NC2=O (centres undefined)", 2758],
  ["C[C@@H](Oc1cc(-n2cnc3ccc(CN4CCN(C)CC4)cc32)sc1C(N)=O)c1ccccc1C(F)(F)F", 154]
]}

# context switch: different compound, same Total Cell Count
For CC(Cc1ccc(O)c(O)c1)C(C)Cc1ccc(O)c(O)c1 (centres undefined) [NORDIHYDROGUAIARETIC ACID] the compound record lists Total Cell Count as 212

###

# System: U2OS
# experiment summary: Multiplex assay against U2OS
# Format: toxicity, cell-based
# run conditions: human, 12 h, 1 µM, compound concentration 1 uM, replicate 1
Would you mind classing the entries by Population Mitochondria Different-Phenotype (%)? Ranges: Low (below 7%), Medium (7% to below 20%), High (20% or more)

# count of solved cases: 6
{"columns": ["compound", "class assignment"],
 "data": [
  ["Cc1ccc(S(=O)(=O)NC2c3ccccc3Oc3ccccc32)cc1", "Low"],
  ["CCCc1cc(C)[nH]c(=O)c1CNC(=O)c1cc(-c2ccc(N3CCN(C(C)C)CC3)nc2)cc2c1cnn2C(C)C", "High"],
  ["Cc1c(P(=S)(c2ccccc2)c2ccccc2)n2ccccc2[n+]1C/C=C/c1ccccc1.[Br-]", "High"],
  ["CC(/C=C1\\SC(=S)N(CCCC(=O)Nc2ccc(C(=O)O)c(O)c2)C1=O)=C\\c1ccccc1", "Low"],
  ["CC[C@@H]1C(=O)N(C)c2cnc(Nc3ccc(C(=O)NC4CCN(C)CC4)cc3OC)nc2N1C1CCCC1 [BI-2536]", "Medium"],
  ["CC(C)[C@H](CO)Nc1nc(Nc2cccc(Cl)c2)c2ncn(C(C)C)c2n1 [PURVALANOLA]", "Medium"]
]}

State the band of `CCOC(=O)CCNc1cc(N2CCc3ccccc3CC2)nc(-c2ccccn2)n1` High

State the band of NC(=O)c1ccc2nc(-c3ccc(C4(N)CCC4)cc3)c(-c3ccccc3)n2n1 [BAY-1125976] Medium

State the band of C[C@@H](Oc1cc(-n2cnc3ccc(CN4CCN(C)CC4)cc32)sc1C(N)=O)c1ccccc1C(F)(F)F [GSK-461364] High

State the band of CC(Cc1ccc(O)c(O)c1)C(C)Cc1ccc(O)c(O)c1 (stereo not drawn) [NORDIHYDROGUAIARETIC ACID] Medium

###

# System: U2OS
# experiment summary: Multiplex assay against U2OS
# Type: toxicity, cell-based
# run conditions: human, 12 h, 10 µM, compound concentration 10 uM, replicate 2
measured parameter: Population Fragmented Nuclei (%)
Numbers only, in %.

Here is how some molecules turned out for Population Fragmented Nuclei (%).
{"columns": ["molecule", "Population Fragmented Nuclei (%)"],
 "data": [
  ["N#Cc1cccc(C(=O)Nc2cc(-c3ccccc3)nn2-c2ccccc2)c1", 9],
  ["CC(C)[C@H](CO)Nc1nc(Nc2cccc(Cl)c2)c2ncn(C(C)C)c2n1 [PURVALANOLA]", 13],
  ["CCCCCNC(=N)N/N=C/c1c[nH]c2ccc(OC)cc12.O=C(O)/C=C\\C(=O)O [TEGASEROD MALEATE]", 22],
  ["Cc1c(Nc2ccc(S(=O)(=O)N3CCN(C)CC3)cc2F)nc2ccc(-c3cnn(C4CC4)c3)cn2c1=O", 56],
  ["CC[C@H](Nc1ncnc2[nH]cnc12)c1nc2cccc(F)c2c(=O)n1-c1ccccc1 [IDELALISIB]", 8],
  ["CCCCN(CC)c1nc(C)nc2c1c(C)cn2-c1c(C)cc(C)cc1C.Cl", 9]
]}

Look up Population Fragmented Nuclei (%) for the entries below, preserving their order.
1. c1ccc(-c2oc3ncnc(NC[C@@H]4CCCO4)c3c2-c2ccccc2)cc1
2. C[C@@H](Oc1cc(-n2cnc3ccc(CN4CCN(C)CC4)cc32)sc1C(N)=O)c1ccccc1C(F)(F)F [GSK-461364]
3. CC[C@@]1(O)C(=O)OCc2c1cc1n(c2=O)Cc2cc3ccccc3nc2-1 [CAMPTOTHECIN]
4. COc1ccccc1-c1cc(Nc2cccc(CS(N)(=O)=O)c2)ncn1
5. COc1cc(C)c(Sc2cnc(NC(=O)c3ccc(CNC(C)C(C)(C)C)cc3)s2)cc1C(=O)N1CCN(C(C)=O)CC1 (centres undefined)
6. Cl.NC[C@@H]1O[C@H](C23CC4CC(CC(C4)C2)C3)Cc2c1ccc(O)c2O
7. Cl.Cn1c2c(c3ccc(Cl)c(Cl)c31)C(C#N)C1(CCNCC1)NC2=O (centres undefined)
8. CN1C(=O)[C@@H](NC(=O)c2cc3ccccc3[nH]2)N=C(c2ccccc2)c2ccccc21 [DEVAZEPIDE]

1: 14; 2: 13; 3: 20; 4: 9; 5: 5; 6: 39; 7: 22; 8: 20

Look up Population Fragmented Nuclei (%) for the entries below, preserving their order.
1. CC(Cc1ccc(O)c(O)c1)C(C)Cc1ccc(O)c(O)c1 (centres undefined) [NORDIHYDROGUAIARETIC ACID]
2. N#CCNC(=O)c1ccc(-c2ccnc(Nc3ccc(N4CCOCC4)cc3)n2)cc1 [MOMELOTINIB]
3. Oc1cccc(-c2nc(N3CCOCC3)c3oc4ncccc4c3n2)c1 [PI-103]
4. CC(/C=C1\SC(=S)N(CCCC(=O)Nc2ccc(C(=O)O)c(O)c2)C1=O)=C\c1ccccc1
5. Cc1ccc(S(=O)(=O)NC2c3ccccc3Oc3ccccc32)cc1
6. CCCc1cc(C)[nH]c(=O)c1CNC(=O)c1cc(-c2ccc(N3CCN(C(C)C)CC3)nc2)cc2c1cnn2C(C)C
7. Cc1c(P(=S)(c2ccccc2)c2ccccc2)n2ccccc2[n+]1C/C=C/c1ccccc1.[Br-]
8. Cc1ccc(NC(=O)Nc2cc(C(F)(F)F)ccc2F)cc1Nc1ccc2c(c1)NC(=O)/C2=C\c1ccc[nH]1

1. 2
2. 27
3. 18
4. 17
5. 42
6. 13
7. 21
8. 8

Look up Population Fragmented Nuclei (%) for the entries below, preserving their order.
1. CC(C)c1cc(Nc2nc(N3CCC[C@H](N)C3)ncc2C(N)=O)cc(C(C)C)n1
2. CCOC(=O)CCNc1cc(N2CCc3ccccc3CC2)nc(-c2ccccn2)n1
3. CN(c1cc(C(F)(F)F)nc(OCCC(=O)O)n1)c1cccc2c1CCC2
4. CC[C@@H]1C(=O)N(C)c2cnc(Nc3ccc(C(=O)NC4CCN(C)CC4)cc3OC)nc2N1C1CCCC1 [BI-2536]

1. 19
2. 3
3. 13
4. 23

Look up Population Fragmented Nuclei (%) for the entries below, preserving their order.
1. CCOc1ccn(-c2ccc(F)cc2)c(=O)c1C(=O)Nc1ccc(Oc2ccnc(N)c2Cl)c(F)c1 [BMS-777607]
2. C=CC(=O)Nc1cc(-n2c(=O)ccc3cnc4ccc(-c5ccc(NS(C)(=O)=O)cc5)cc4c32)ccc1C
3. Cc1c(Nc2ccc(S(=O)(=O)N3CCN(C)CC3)cc2F)nc2ccc(Nc3cnn(C4CC4)c3)cn2c1=O

1: 6; 2: 8; 3: 9
